System: DVL3-1
Experiment: Holdup assay, DVL3-1
Format: binding, human
endpointLabel: BI
Numbers only.

What value of BI has been reported for the following compound? "CC[C@H](C)[C@H](NC(=O)[C@H](CCC(N)=O)NC(=O)[C@@H](NC(=O)[C@H](Cc1c[nH]cn1)NC(=O)[C@H](CCC(N)=O)NC(=O)[C@H](CC(=O)O)NC(=O)[C@H](CCC(=O)O)NC(=O)[C@H](CC(=O)O)NC(=O)CCC(=O)NCCCOCCOCCOCCCNC(=O)CCCC[C@@H]1SC[C@@H]2NC(=O)N[C@@H]21)[C@@H](C)O)C(=O)N[C@H](C(=O)N[C@@H](CCCCNC(C)=O)C(=O)N[C@H](C(=O)O)C(C)C)[C@@H](C)O" -0.002

---

Biological target: ARHGEF11-1 (Homo sapiens)
Sequence (O15085 47-126): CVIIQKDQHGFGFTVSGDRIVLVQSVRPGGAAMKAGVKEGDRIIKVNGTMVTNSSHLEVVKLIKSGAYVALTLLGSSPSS
Assay: Holdup assay, ARHGEF11-1
Assay type: binding
*1 amine or outer side, *2 acyl side, *3 side chain or, on linkers, in order; H or OH if unused. Where a SMILES comes first, the peptide text is derived from it. The star is where a group is joined. X1 = O=C(CCCC[C@@H]1SC[C@@H]2NC(=O)N[C@@H]21)NCCCOCCOCCOCCCN*; Suc = O=C(CCC(=O)[*:2])[*:1]
So I've got a bunch of compounds here, and I need their BI values.
Numbers only.

Field: example entries. Status: answers known.
CC[C@H](C)[C@H](NC(=O)[C@H](CCC(N)=O)NC(=O)[C@@H](NC(=O)[C@H](Cc1c[nH]cn1)NC(=O)[C@H](CCC(N)=O)NC(=O)[C@H](CC(=O)O)NC(=O)[C@H](CCC(=O)O)NC(=O)[C@H](CC(=O)O)NC(=O)CCC(=O)NCCCOCCOCCOCCCNC(=O)CCCC[C@@H]1SC[C@@H]2NC(=O)N[C@@H]21)[C@@H](C)O)C(=O)N[C@H](C(=O)N[C@@H](CCCNC(=N)N)C(=O)N[C@H](C(=O)O)C(C)C)[C@@H](C)O [PTEN_KR] ({X1-Suc}-DEDQHTQITRV-OH)
0.18
CC[C@H](C)[C@H](NC(=O)[C@H](CCC(N)=O)NC(=O)[C@@H](NC(=O)[C@H](Cc1c[nH]cn1)NC(=O)[C@H](CCC(N)=O)NC(=O)[C@H](CC(=O)O)NC(=O)[C@H](CCC(=O)O)NC(=O)[C@H](CC(=O)O)NC(=O)[C@H](Cc1ccccc1)NC(=O)[C@@H]1CCCN1C(=O)CCC(=O)NCCCOCCOCCOCCCNC(=O)CCCC[C@@H]1SC[C@@H]2NC(=O)N[C@@H]21)[C@@H](C)O)C(=O)N[C@H](C(=O)N[C@@H](CCCCN)C(=O)N[C@H](C(=O)O)C(C)C)[C@@H](C)O [PTEN_13] ({X1-Suc}-PFDEDQHTQITKV-OH)
0.114
CC[C@H](C)[C@H](NC(=O)[C@H](CCC(N)=O)NC(=O)[C@@H](NC(=O)[C@H](Cc1c[nH]cn1)NC(=O)[C@H](CCC(N)=O)NC(=O)[C@H](CC(=O)O)NC(=O)[C@H](CCC(=O)O)NC(=O)[C@H](CC(=O)O)NC(=O)CCC(=O)NCCCOCCOCCOCCCNC(=O)CCCC[C@@H]1SC[C@@H]2NC(=O)N[C@@H]21)[C@@H](C)O)C(=O)N[C@H](C(=O)N[C@@H](CCCCNC(C)=O)C(=O)N[C@H](C(=O)O)C(C)C)[C@@H](C)O [PTEN_Ac]
0.428

# evaluate next
What value of BI has been reported for the following compound? CC[C@H](C)[C@H](NC(=O)[C@H](CCC(N)=O)NC(=O)[C@@H](NC(=O)[C@H](Cc1c[nH]cn1)NC(=O)[C@H](CCC(N)=O)NC(=O)[C@H](CC(=O)O)NC(=O)[C@H](CCC(=O)O)NC(=O)[C@H](CC(=O)O)NC(=O)CCC(=O)NCCCOCCOCCOCCCNC(=O)CCCC[C@@H]1SC[C@@H]2NC(=O)N[C@@H]21)[C@@H](C)O)C(=O)N[C@H](C(=O)N[C@@H](CCCCN)C(=O)N[C@H](C(=O)O)C(C)C)[C@@H](C)O [PTEN_11] 0.026
